IC50 for assorted compounds
Test system: HepG2
Experiment: Cytotoxicity against human HepG2 cells assessed as reduction in cell viability by MTT assay
Type: functional, cell-based

Please review the entries below; each comes with its answer.
[[record]]
chemical_smiles = "CC1=C[C@@H]2/C=C/C[C@H](C)CC/C=C\\C(=O)[C@]23C(=O)N[C@@H](Cc2c[nH]c4ccccc24)[C@@H]3[C@@H]1C"
assayed_target = "HepG2"
observed_property = "IC50"
result = "9.1 µM"

[[record]]
chemical_smiles = "CC1=C(C)[C@H]2[C@H](Cc3c[nH]c4ccccc34)NC(=O)[C@]23C(=O)/C=C\\CC[C@@H](C)C/C=C/[C@H]3[C@@H]1O"
assayed_target = "HepG2"
observed_property = "IC50"
result = "10.7 µM"

[[record]]
chemical_smiles = "CC(=O)O[C@@H]1CC(=O)C[C@@H](C)C/C=C/[C@H]2[C@H](O)C(C)=C(C)[C@H]3[C@H](Cc4c[nH]c5ccccc45)NC(=O)[C@@]23C1=O"
assayed_target = "HepG2"
observed_property = "IC50"
result = "> 50 µM"

[[record]]
chemical_smiles = "CC1=C[C@@H]2/C=C/C[C@H](C)CC(=O)[C@@H]3O[C@H]3C(=O)[C@]23C(=O)N[C@@H](Cc2c[nH]c4ccccc24)[C@@H]3[C@@H]1C"
assayed_target = "HepG2"
observed_property = "IC50"
result = "37.3 µM"

[[record]]
chemical_smiles = "C[C@H]1C/C=C/[C@H]2C(=O)[C@H](C)[C@@H](C)[C@H]3[C@H](Cc4c[nH]c5ccccc45)NC(=O)[C@]32C(=O)CCCC1"
assayed_target = "HepG2"
observed_property = "IC50"
result = "> 50 µM"


Consider the additional compound presented here.
IC50 for C=C1[C@@H](C)[C@H]2[C@H](Cc3c[nH]c4ccccc34)NC(=O)[C@]23C(=O)CCCC[C@@H](C)C/C=C/[C@H]3[C@@H]1O ?
> 50 µM

* * *

System: HepG2
Test: Cytotoxicity against human HepG2 cells assessed as reduction in cell viability by MTT assay
Format: functional, cell-based
Structures can show the parent of a compound that is named as a salt.
observed_property: pIC50
On this scale, pIC50 is minus log10 of a concentration expressed in M (mol/L).

[[record]]
compound = "CC1=C[C@@H]2/C=C/C[C@H](C)CC(=O)/C=C\\C(=O)[C@]23C(=O)N[C@@H](Cc2c[nH]c4ccccc24)[C@@H]3[C@@H]1C"
recorded_number = 5.02


Next:
Which pIC50 value is on record for COc1cccc2c1C(=O)c1c(O)c3c(c(O)c1C2=O)C[C@@](O)(C(=O)CO)C[C@@H]3O[C@H]1C[C@H](N)[C@H](O)[C@H](C)O1 [DOXORUBICIN HYDROCHLORIDE] ?
6.40

* * *

Known pIC50 of a selection of molecules
Test system: A549
Test: Cytotoxicity against human A549 cells assessed as reduction in cell viability by MTT assay
Assay type: functional, cell-based
// returns pIC50 (minus log10 of molar concentration), number only

Example entries begin here.
[[record]]
chemical_smiles = "CC1=C[C@@H]2/C=C/C[C@H](C)CC/C=C\\C(=O)[C@]23C(=O)N[C@@H](Cc2c[nH]c4ccccc24)[C@@H]3[C@@H]1C"
recorded_number = 5.09

[[record]]
chemical_smiles = "CC1=C(C)[C@H]2[C@H](Cc3c[nH]c4ccccc34)NC(=O)[C@]23C(=O)/C=C\\CC[C@@H](C)C/C=C/[C@H]3[C@@H]1O"
recorded_number = 5.16

[[record]]
chemical_smiles = "CC(=O)O[C@@H]1CC(=O)C[C@@H](C)C/C=C/[C@H]2[C@H](O)C(C)=C(C)[C@H]3[C@H](Cc4c[nH]c5ccccc45)NC(=O)[C@@]23C1=O"
recorded_number = 4.80


Now look at this one.
Report pIC50 for CO[C@@H]1CC(=O)C[C@@H](C)C/C=C/[C@H]2C=C(C)[C@@H](C)[C@H]3[C@H](Cc4c[nH]c5ccccc45)NC(=O)[C@]32C1=O please.
4.63

* * *

Test system: HCT-116
Test: Cytotoxicity against human HCT-116 cells assessed as reduction in cell viability by MTT assay
Type: functional, cell-based
observed_property: IC50

Worked examples follow.
[[record]]
chemical_smiles = "CC(=O)O[C@@H]1CC(=O)C[C@@H](C)C/C=C/[C@H]2[C@H](O)C(C)=C(C)[C@H]3[C@H](Cc4c[nH]c5ccccc45)NC(=O)[C@@]23C1=O"
observed_property = "IC50"
result = "21.2 µM"

[[record]]
chemical_smiles = "CO[C@@H]1CC(=O)C[C@@H](C)C/C=C/[C@H]2C=C(C)[C@@H](C)[C@H]3[C@H](Cc4c[nH]c5ccccc45)NC(=O)[C@]32C1=O"
observed_property = "IC50"
result = "30.9 µM"


Kindly review the next compound as well.
Look up IC50: CC1=C[C@@H]2/C=C/C[C@H](C)CC(=O)/C=C/C(=O)[C@]23C(=O)N[C@@H](Cc2c[nH]c4ccccc24)[C@@H]3[C@@H]1C
12.2 µM

* * *

Tested on: HepG2
Assay: Cytotoxicity against human HepG2 cells assessed as reduction in cell viability by MTT assay
Type: functional, cell-based
observed_property: pIC50
// field semantics: pIC50 = negative decimal log of concentration (mol/L)

[[record]]
chemical_smiles = "CC1=C[C@@H]2/C=C/C[C@H](C)CC(=O)/C=C/C(=O)[C@]23C(=O)N[C@@H](Cc2c[nH]c4ccccc24)[C@@H]3[C@@H]1C"
recorded_number = 5.04


Which value of pIC50 has been reported for CO[C@@H]1CC(=O)C[C@@H](C)C/C=C/[C@H]2C=C(C)[C@@H](C)[C@H]3[C@H](Cc4c[nH]c5ccccc45)NC(=O)[C@]32C1=O in the records?
4.35

* * *

Tested on: HCT-116
Assay: Cytotoxicity against human HCT-116 cells assessed as reduction in cell viability by MTT assay
Assay type: functional, cell-based
pIC50: −log10 of the molar value.
Entries and their pIC50

As a guide, the following entries are already answered.
[[record]]
chemical_smiles = "CC1=C(C)[C@H]2[C@H](Cc3c[nH]c4ccccc34)NC(=O)[C@]23C(=O)CCCC[C@@H](C)C/C=C/[C@H]3[C@@H]1O"
assayed_target = "HCT-116"
observed_property = "pIC50"
result = "< 4.30"

[[record]]
chemical_smiles = "C[C@H]1C/C=C/[C@H]2C(=O)[C@H](C)[C@@H](C)[C@H]3[C@H](Cc4c[nH]c5ccccc45)NC(=O)[C@]32C(=O)CCCC1"
assayed_target = "HCT-116"
observed_property = "pIC50"
result = "< 4.30"


With those in mind, consider the next compound.
Name the recorded pIC50 for CC1=C[C@@H]2/C=C/C[C@H](C)CC(=O)[C@@H]3O[C@H]3C(=O)[C@]23C(=O)N[C@@H](Cc2c[nH]c4ccccc24)[C@@H]3[C@@H]1C .
< 4.30
